The following are reported pEC50 results, target or system Estrogen receptor (Homo sapiens, UniProt P03372).
pEC50: −log10 of the molar value.
quantity-name: pEC50

Some compounds with known pEC50 results, for comparison:
{"smiles-str": "Cc1cc(-c2cc3ccc(O)cc3s2)ccc1O", "pEC50": 6.83}
{"smiles-str": "CCCc1cc(-c2cc3ccc(O)cc3s2)ccc1O", "pEC50": 6.79}
{"smiles-str": "Oc1ccc2cc(-c3ccc(O)c(F)c3)sc2c1", "pEC50": 6.86}
{"smiles-str": "Oc1cc(O)c2cc(-c3ccc(O)c(F)c3)sc2c1", "pEC50": 6.00}

[P] Oc1ccc2cc(-c3ccccc3)sc2c1
[Q] Oc1ccc2cc(-c3ccc(O)c(O)c3)sc2c1
[Q] For P and Q , which recorded pEC50 is lower? Output the label that corresponds to your choice.
[A] Q
